- Test system: Murine leukemia virus (MuLV)
- MEASUREMENT NOTES: UV-XC plaque assay against murine retroviruses
- Format: cell-based
- EXPERIMENTAL PARAMETERS: SC1, SC-1 cells
Assignment: determine reported pIC50 for the given compounds.
// returns pIC50 (minus log10 of molar concentration), number only

State the recorded pIC50 for this entry: Cc1cn([C@H]2C[C@H](N=[N+]=[N-])[C@@H](CO)O2)c(=O)[nH]c1=O [AZT, 3′-Azido-3′-deoxythymidine, reference compound] 8.18

Name the reported pIC50 value associated with the compound O=c1ccn([C@H]2C[C@H](CO)[C@@H](CO)O2)c(=O)[nH]1 4.08

If you can, please state the reported pIC50 value of O=c1[nH]cnc2c1ncn2[C@H]1C[C@H](CO)[C@@H](CO)O1 . 5.30

Which measured pIC50 value corresponds to Cc1cn([C@H]2C[C@H](CO)[C@@H](CO)O2)c(=O)[nH]c1=O ? 4.75

Fill in: pIC50 of Nc1ccn([C@H]2C[C@H](CO)[C@@H](CO)O2)c(=O)n1 is ___ 7.22

---

- System: HIV (LAV strain)
- MEASUREMENT NOTES: Anti-HIV/LAV activity in CEM-F cells, p-24 gag protein ELISA
- Type: cell-based
- EXPERIMENTAL PARAMETERS: Human immunodeficiency virus 1, 192 h, eight days, p-24 gag protein in supernatant, read-out: HIV (ID50)
pIC50: −log10 of the molar value.
Please respond with reported pIC50 for every item in the list.

Name the recorded pIC50 for Nc1ccn([C@@H]2O[C@H](CO)[C@@H](CO)[C@H]2O)c(=O)n1 . 6.10

What measured pIC50 goes with Cc1cn([C@H]2C[C@H](N=[N+]=[N-])[C@@H](CO)O2)c(=O)[nH]c1=O [AZT, 3′-Azido-3′-deoxythymidine, reference compound] ? 6.00

What pIC50 value was documented for this molecule, Cc1cn([C@H]2C[C@H](CO)[C@@H](CO)O2)c(=O)[nH]c1=O ? < 5.00

So what's the measured pIC50 for this one? O=c1ccn([C@H]2C[C@H](CO)[C@@H](CO)O2)c(=O)[nH]1 < 5.00

Returns the measured pIC50 for the input molecule. Input: Nc1ccn([C@H]2C[C@H](CO)[C@@H](CO)O2)c(=O)n1 < 7.00

Which pIC50 reading was recorded for the molecule O=c1[nH]cnc2c1ncn2[C@H]1C[C@H](CO)[C@@H](CO)O1 ? < 5.00

Looking for the measured pIC50 of Nc1ccn([C@@H]2C[C@H](CO)[C@@H](CO)O2)c(=O)n1 , can you help? 5.33

// query pIC50 value for entry Nc1ncnc2c1ncn2[C@H]1C[C@H](CO)[C@@H](CO)O1 < 5.00
